species on record: Mus musculus; test: Ratio of concentration that reduced cell viability to inhibitory concentration for LPS-induced B cell proliferation; format: functional
reportedEndpoint: Selectivity index

q: Entry under review: CC(Oc1ccc(OC2O[C@@H]3OC4(C)CC[C@H]5[C@H](C)CC[C@@H]([C@H]2C)[C@@]35OO4)cc1)C(=O)O (single isomer, unassigned) . Reported Selectivity index?
a: >116

q: Entry under review: C[C@H]1[C@@H](Oc2ccc(CC(=O)O)cc2)O[C@@H]2O[C@]3(C)CCC4[C@H](C)CC[C@@H]1[C@]42OO3 (stereo partly drawn) . Reported Selectivity index?
a: >10

q: Entry under review: CCOC(=O)C(C)Oc1ccc(OC2O[C@@H]3OC4(C)CCC5[C@H](C)CC[C@@H]([C@H]2C)[C@]53OO4)cc1 (single isomer, unassigned) . Reported Selectivity index?
a: >118
